Origin of measurements: patent US20210032365A1

I'd appreciate it if you could supply kon values for the items below.
Target: T1, human C1s (human, UniProt P09871 16-688)
T1 construct: Analyte in the Biacore assays; also called hC1s; serum-derived human C1s (CompTech)
T1 sequence: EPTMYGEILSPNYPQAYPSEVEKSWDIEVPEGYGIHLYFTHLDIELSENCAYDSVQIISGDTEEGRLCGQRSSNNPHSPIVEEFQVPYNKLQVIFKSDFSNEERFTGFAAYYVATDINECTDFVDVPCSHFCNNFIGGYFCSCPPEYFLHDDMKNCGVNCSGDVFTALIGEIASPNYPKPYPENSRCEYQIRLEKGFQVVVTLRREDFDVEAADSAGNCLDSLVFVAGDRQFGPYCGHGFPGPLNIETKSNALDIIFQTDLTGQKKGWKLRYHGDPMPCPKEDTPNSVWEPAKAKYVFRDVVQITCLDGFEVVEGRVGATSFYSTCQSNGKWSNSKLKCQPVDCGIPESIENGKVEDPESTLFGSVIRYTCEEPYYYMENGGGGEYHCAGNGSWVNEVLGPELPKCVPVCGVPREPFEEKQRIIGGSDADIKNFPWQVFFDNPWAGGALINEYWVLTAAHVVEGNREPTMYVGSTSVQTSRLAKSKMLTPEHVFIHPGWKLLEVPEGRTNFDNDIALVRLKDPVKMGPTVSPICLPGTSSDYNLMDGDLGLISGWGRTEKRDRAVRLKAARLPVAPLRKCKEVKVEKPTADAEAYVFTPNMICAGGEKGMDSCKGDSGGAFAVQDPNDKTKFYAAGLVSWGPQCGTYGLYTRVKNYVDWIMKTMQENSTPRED
Assay: SPR (Biacore T200, 37C), Ab captured on protein A/G; pH 5.8, 1.2 mM Ca
Give bare numbers, in M⁻¹ s⁻¹.

List kon for every entry below, keeping the order given.
1. C1_IPN92H0281-SG4GK/IPN93L0091-SK1 (antibody, human IgG4 S228P, kappa, name in Kabat numbering, V domains shown, Substitutions from IPN009VH2 / IPN009VK3, Kabat numbering; also called IPN92H0281/IPN93L0091) VH: EVMLVESGGGLVKPGGSLRLSCAASGFTFSNYAMSWVRQAPGKGLEWVATISSGGSKTYELDSVDERFTISRDNSKDTLYLQMNSLRAEDTALYYCARLFTKHAMDYWGQGTLVTVSS VL: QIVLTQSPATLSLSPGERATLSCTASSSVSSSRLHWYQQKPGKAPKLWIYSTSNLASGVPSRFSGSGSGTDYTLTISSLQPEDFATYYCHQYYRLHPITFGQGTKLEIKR
2. C1_IPN92H0159-SG4GK/IPN93L0024-SK1 (antibody, human IgG4 S228P, kappa, name in Kabat numbering, V domains shown, Substitutions from IPN009VH2, Kabat numbering; also called IPN92H0159/IPN93L0024) VH: EVMLVESGGGLVKPGGSLRLSCAASGFTFSNYAMSWVRQAPGKGLEWVATISSGGSHTYDLDSVKGRFTISRDNSKDTLYLQMNSLRAEDTALYYCARLFTGHAMDYWGQGTLVTVSS VL: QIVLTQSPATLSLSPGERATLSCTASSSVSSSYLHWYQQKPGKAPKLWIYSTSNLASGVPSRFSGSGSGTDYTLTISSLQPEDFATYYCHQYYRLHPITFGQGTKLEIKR

1: 625000; 2: 421000
